Target: CCDC6-RET-BaF3 (Homo sapiens, UniProt P07949)
Construct: fused on or other part: Q16204 (Coiled-coil domain-containing protein 6)
Test: Growth inhibition of CCDC6-RET-BaF3 cells stably transfected with kinase (MTS)
Assay type: cell-based
Settings: 48 h, read-out: CCDC6-RET (IC50/nM)
measured quantity: GI50 (nM)
Please respond with the number in nM and leave the unit unwritten.

Sample records with GI50:
Cc1ccc(Oc2nc(-c3ccsc3)nc3ccn(C)c23)cc1NC(=O)c1ccc(CN2CCN(C)CC2)c(C(F)(F)F)c1 [III-j-8] : 1140
CN1CCN(Cc2ccc(C(=O)Nc3cc(Oc4nc(-c5cccnc5)nc5cc[nH]c45)ccc3Cl)cc2C(F)(F)F)CC1 [III-k-1] : 1860
Cc1ccc(Oc2nc(-c3ccncc3)nc3nn(C)cc23)cc1NC(=O)c1cccc(C(F)(F)F)c1 [IV-c-2] : 1680

Name the reported GI50 value associated with the compound Cc1ccc(C(=O)Nc2ccc(CN3CCN(C)CC3)c(C(F)(F)F)c2)cc1Oc1nc(N(C)C)nc2c1cnn2C [II-m-18]
257

----------
Attribute: GI50
Molecular target: KIF5B-RET-BaF3 (Homo sapiens, UniProt P07949)
Construct: fused on or other part: P33176 (Kinesin-1 heavy chain)
Sequence (P07949 whole entry, change not shown, the tested form may be a part): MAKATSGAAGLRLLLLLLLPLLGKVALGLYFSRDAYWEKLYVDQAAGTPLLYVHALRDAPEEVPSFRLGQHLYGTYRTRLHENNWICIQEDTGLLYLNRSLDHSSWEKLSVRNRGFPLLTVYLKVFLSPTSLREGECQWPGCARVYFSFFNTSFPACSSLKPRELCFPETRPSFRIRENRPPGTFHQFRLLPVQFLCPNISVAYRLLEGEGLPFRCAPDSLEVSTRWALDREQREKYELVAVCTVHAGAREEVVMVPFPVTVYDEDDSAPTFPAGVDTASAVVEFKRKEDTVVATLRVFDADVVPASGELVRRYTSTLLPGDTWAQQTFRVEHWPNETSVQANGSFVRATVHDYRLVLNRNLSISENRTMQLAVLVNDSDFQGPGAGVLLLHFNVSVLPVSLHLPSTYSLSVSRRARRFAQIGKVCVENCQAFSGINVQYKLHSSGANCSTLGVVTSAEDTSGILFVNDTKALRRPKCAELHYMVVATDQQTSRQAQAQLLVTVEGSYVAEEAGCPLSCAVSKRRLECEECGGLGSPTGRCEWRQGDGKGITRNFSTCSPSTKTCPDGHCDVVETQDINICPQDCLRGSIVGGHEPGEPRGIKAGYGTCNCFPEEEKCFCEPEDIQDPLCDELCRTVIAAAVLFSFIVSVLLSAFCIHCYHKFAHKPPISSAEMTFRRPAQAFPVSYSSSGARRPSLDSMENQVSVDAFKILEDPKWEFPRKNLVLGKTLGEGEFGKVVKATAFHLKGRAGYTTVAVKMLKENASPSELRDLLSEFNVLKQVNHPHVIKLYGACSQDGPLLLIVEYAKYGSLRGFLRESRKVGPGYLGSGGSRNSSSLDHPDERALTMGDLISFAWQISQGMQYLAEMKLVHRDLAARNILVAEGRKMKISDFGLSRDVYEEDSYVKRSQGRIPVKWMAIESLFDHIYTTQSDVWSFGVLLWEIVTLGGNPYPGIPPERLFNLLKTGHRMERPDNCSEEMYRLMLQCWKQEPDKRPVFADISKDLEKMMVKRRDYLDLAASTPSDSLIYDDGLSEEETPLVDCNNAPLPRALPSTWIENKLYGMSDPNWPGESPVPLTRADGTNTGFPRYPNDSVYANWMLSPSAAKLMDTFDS
Assay: Growth inhibition of KIF5B-RET-BaF3 cells stably transfected with kinase (MTS)
Assay type: cell-based
Details: 48 h, read-out: KIF5B-RET (IC50/nM)
Kindly write the number and append the unit.

Sample records with GI50:
Cc1ccc(NC(=O)c2ccc(CN3CCN(C)CC3)c(C(F)(F)F)c2)cc1Oc1nc(-c2cccnc2)nc2ccsc12 : 1470 nM
Cc1ccc(Oc2cc(-c3cccnc3)nc3[nH]ccc23)cc1C(=O)Nc1ccc(CN2CCN(C)CC2)c(C(F)(F)F)c1 : 2120 nM
CN1CCN(Cc2ccc(NC(=O)c3cc(Oc4nc(-c5ccc(Cl)cc5)nc5c4ncn5C)ccc3Cl)cc2C(F)(F)F)CC1 : 1390 nM

Okay, next one:
Form field - read-out: GI50; system: KIF5B-RET-BaF3 (Homo sapiens, UniProt P07949); submitted item: "CN1CCN(Cc2ccc(C(=O)Nc3cccc(Oc4nc(-c5ccncc5)nc5ccn(C)c45)c3)cc2C(F)(F)F)CC1"
180 nM

----------
Biological target: KIF5B-RET-BaF3 (Homo sapiens, UniProt P07949)
Construct: fused on or other part: P33176 (Kinesin-1 heavy chain)
Experiment: Growth inhibition of KIF5B-RET-BaF3 cells stably transfected with kinase (MTS)
Format: cell-based
Conditions: 48 h, read-out: KIF5B-RET (IC50/nM)
measured quantity: GI50 (nM)
Please respond with the number in nM and leave the unit unwritten.

Sample records with GI50:
CC(=O)NC1CCN(c2ccc(NC(=O)c3ccc(C)c(Oc4nc(-c5ccncc5)nc5c4cnn5C)c3)cc2C(F)(F)F)CC1 : 587
Cc1ccc(C(=O)Nc2ccc(CN3CCN(C)CC3)c(C(F)(F)F)c2)cc1Oc1nc(-c2ccncc2)nc2[nH]cnc12 : 810
Cc1ccc(Oc2cc(-c3ccncc3)nc3[nH]ccc23)cc1C(=O)Nc1ccc(CN2CCN(C)CC2)c(C(F)(F)F)c1 : 616

Okay, next one:
Form field - read-out: GI50; system: KIF5B-RET-BaF3 (Homo sapiens, UniProt P07949); submitted item: "Cc1ccc(C(=O)Nc2ccc(CN3CCN(C)CC3)c(C(F)(F)F)c2)cc1Oc1nc(-c2ccoc2)nc2c1cnn2C"
14.6
